target: Metabotropic glutamate receptor 5 (Rattus norvegicus); test: Negative allosteric modulator activity at rat mGlu5 receptor expressed in HEK293A cells assessed as EC80 glutamate-induced maximum Ca2+ mobilization response at 30 uM relative to 100 uM glutamate by Fluo-4 AM dye based fluorescence assay; assay type: functional, cell-based
measure: %max (%)

Would you please look over these solved cases?
CC(c1cncnc1)c1cc(C(=O)Nc2ccc(F)cn2)c2ncccc2c1 (stereo not given)
1.5
O=C(c1cncnc1)c1cc(C(=O)Nc2ccc(F)cn2)c2ncccc2c1
2.7
COC(c1cncnc1)c1cc(C(=O)Nc2ccc(F)cn2)c2ncccc2c1 (stereo not given)
2.9
O=C(c1cncnc1)c1cc(C(=O)Nc2cccc(F)n2)c2ncccc2c1
12.5
COC(c1cncnc1)c1cc(C(=O)Nc2nc(C)cs2)c2ncccc2c1 (stereo not given)
1.8
Cc1csc(NC(=O)c2cc(C(F)c3cncnc3)cc3cccnc23)n1 (stereo not given)
1.7
Cc1cccc(NC(=O)c2cc(C(=O)c3cncnc3)cc3cccnc23)n1
1.5

I. Cc1cccc(NC(=O)c2cc(C(F)(F)c3cncnc3)cc3cccnc23)n1
II. Cc1csc(NC(=O)c2cc(C(=O)c3cncnc3)cc3cccnc23)n1
III. Cc1ccnc(NC(=O)c2cc(C(F)(F)c3cncnc3)cc3cccnc23)c1
IN: Would you mind ranking these compounds by ascending %max? List the labels in the requested order.
OUT: II, I, III
(II: 1.3%, I: 2.7%, III: 44%)

Data provenance: ChEMBL document CHEMBL4190386
